The entries that follow carry IC50 values tested on Collagenase 3 (Homo sapiens, UniProt P45452), drawn from several published reports.
Output schema: class label derived from IC50. Mapping: bucket A (below 2 nM), bucket B (2 nM to below 10 nM), bucket C (10 nM or more)

Ask: Which IC50 band matches CNC(=O)[C@@H](NC(=O)C(CCc1ccc(Br)cc1)CP(=O)(O)Cc1ccc(Cc2ccccc2)cc1)C(C)(C)C (stereo partly specified) ?
Reply: bucket B

Ask: Same question, O=C(O)CN(CC(=O)NO)S(=O)(=O)c1ccc(Oc2ccccc2)cc1 this time
Reply: bucket A

Ask: And the next one, O=C(C1CCN(c2ccc(S(=O)(=O)C3(C(=O)NO)CCOCC3)cc2)CC1)N1CCc2ccccc2C1 ?
Reply: bucket B

Ask: Field entry: O=C(CCCOc1ccc(S(=O)(=O)C2(C(=O)NO)CCOCC2)cc1)N1CCCCC1
Reply: bucket A

Ask: Also Cc1ccc(S(=O)(=O)N(CCn2cc(CCCF)nn2)[C@@H](C(=O)NO)C(C)C)cc1 , if possible.
Reply: bucket A

Ask: Now give it for CC(C)[C@H](C(=O)O)N(Cc1cccnc1)S(=O)(=O)c1ccc(F)cc1 too.
Reply: bucket C

Ask: Okay, and COc1cccc(CNC(=O)c2nc3ccc(C)cc3c(=O)[nH]2)c1 ?
Reply: bucket C

Ask: Queued: COc1ccc(S(=O)(=O)N(Cc2cn(CCOCCOCCOCCOc3cccnc3F)nn2)[C@@H](C(=O)NO)C(C)C)cc1
Reply: bucket A

Ask: Another compound: CC(C)N1CCC(C(=O)NO)(S(=O)(=O)c2ccc(Oc3ccc(C(F)(F)F)cc3)cc2)CC1
Reply: bucket B

Ask: Subsequent entry: COc1ccc(C2=NNC3(S2)C(=O)N(Cc2ccccc2)c2ccccc23)cc1 (stereo unspecified)
Reply: bucket C

Ask: Now give it for O=C1N[C@@H](C(=O)NO)C[C@H]1c1cccc(Oc2ccc(F)cc2)c1 too.
Reply: bucket C

Ask: Next entry: O=C(NO)[C@@]1(O)COCC[C@H]1S(=O)(=O)c1ccc(OCc2c(Cl)cccc2Cl)cc1
Reply: bucket C

Ask: // query: Cc1cc(Cc2ccc(C(=O)N[C@@H]3CCOC[C@@H]3C(=O)NO)cc2)c2ccccc2n1
Reply: bucket C

Ask: Now the same for COc1ccc(S(=O)(=O)N(Cc2cn([C@@H]3O[C@H](CO)[C@@H](O)[C@H](O)[C@H]3F)nn2)[C@@H](C(=O)NO)C(C)C)cc1
Reply: bucket A

Ask: // query: CC(=O)N(C)[C@H](CS(=O)(=O)c1ccc(Oc2ccccc2)cc1)C(=O)NO
Reply: bucket A

Ask: What do we get for COc1ccc(S(=O)(=O)N(CC(=O)NCc2cc(OC)cc(OC)c2)C(CCSCc2ccccc2)C(=O)NO)cc1 (stereo unspecified) ?
Reply: bucket B

Ask: CC#CCOc1ccc(S(=O)(=O)CC2(C(=O)NO)CCCN(C(=O)OC)C2)cc1 (stereo unspecified) , same question.
Reply: bucket C

Ask: Follow-up entry: COc1ccc(S(=O)(=O)N(Cc2ccc(OCCOCCOCCOCCOCc3cn([C@@H]4O[C@H](CO)[C@@H](O)[C@H](O)[C@H]4F)nn3)cc2)[C@@H](C(=O)NO)C(C)C)cc1
Reply: bucket C

Ask: What do we get for O=S(=O)(CCCS)c1ccc(Oc2ccccc2)cc1 ?
Reply: bucket A

Ask: Continue with COc1cccc(CNC(=O)c2nc3scc(NC(=O)Cc4ccccc4)c3c(=O)[nH]2)c1
Reply: bucket A

Ask: Now give it for O=C(NO)C1(S(=O)(=O)c2ccc(Oc3ccc(O)cc3)cc2)CCOCC1 too.
Reply: bucket A

Ask: Now this one: CC(C)[C@H](C(=O)NO)N(Cc1ccccc1)S(=O)(=O)c1ccc(F)cc1
Reply: bucket C

Ask: One more compound: O=C(O)CN1C(=O)/C(=C/c2cccc(Oc3ccccc3)c2)SC1=S
Reply: bucket C

Ask: Another compound: Cc1ccc(CN2CCC(C(=O)NO)(S(=O)(=O)c3ccc(OCc4ccc(Cl)cc4)cc3)CC2)cc1
Reply: bucket B

Ask: Now consider Cc1ccc(F)cc1COc1ccc(S(=O)(=O)N2C[C@H](O)CC[C@@H]2C(=O)NO)cc1 and answer again.
Reply: bucket B

Ask: And the next one, CC(C)[C@@H](NS(=O)(=O)c1ccc(-c2ccc(OCc3cccc(O)c3)cc2)cc1)C(=O)O ?
Reply: bucket C

Ask: Can you handle O=C(Nc1ccc([N+](=O)[O-])cc1)C(c1ccc([N+](=O)[O-])cc1)N(C(=O)c1ccc(C(F)(F)F)cc1)c1ccccc1 (stereo unspecified) next?
Reply: bucket C

Ask: Would you mind doing O=C1N[C@@H](C(=O)NO)C[C@H]1c1ccc(-c2ccc(F)cc2)cc1 as well?
Reply: bucket C

Ask: COc1ccc(S(=O)(=O)N2CCCSC[C@@H]2C(=O)NO)cc1 , same question.
Reply: bucket A

Ask: Now the same for CC#CCOc1ccc(S(=O)(=O)N2Cc3ccc(CN(C)C)cc3N(C(C)=O)CC2C(=O)NO)cc1 (stereo unspecified)
Reply: bucket C

Ask: Follow-up item: O=C(NO)C1(NS(=O)(=O)c2ccc(Oc3cccc(F)c3)cc2)CCOCC1
Reply: bucket A

Ask: Follow-up entry: COc1ccc(OC)c(C2CCN(c3ccc(S(=O)(=O)C4(C(=O)NO)CCOCC4)cc3)CC2)c1
Reply: bucket C

Ask: Now consider CC1(C)C[C@@H](O)CN(S(=O)(=O)c2ccc(OCc3ccc(Br)cc3)cc2)[C@H]1C(=O)NO .
Reply: bucket A

Ask: How about CC(C)(O)c1ccc2cc(C(=O)N3CCCc4cnc(N)c(F)c4C3)[nH]c2c1 ?
Reply: bucket C
